measurement-label: pIC50
To interpret pIC50, take it as minus log10 of a concentration measured in moles per litre.

Form field pIC50 for item O=C(Nc1ccc2c(c1)C(=O)N(CCC1CCN(Cc3ccccc3)CC1)C2=O)c1ccccc1 on Butyrylcholinesterase (Rattus norvegicus): 4.37

* * *

Kindly state pIC50 for each of the entries shown.
API: returns pIC50 as number; meaning -log10 of concentration in mol/L.

c1ccc(CN2CCC(CCN3CCc4ccccc4C3)CC2)cc1 on Acetylcholinesterase (Mus musculus, UniProt P21836) gives pIC50 = 5.80

Known value: Acetylcholinesterase (Mus musculus, UniProt P21836) pIC50 of the compound Nc1cccc2c1C(=O)N(CCC1CCN(Cc3ccccc3)CC1)C2=O equals 7.96

Item O=C(Nc1cccc2c1C(=O)N(CCC1CCN(Cc3ccccc3)CC1)C2=O)c1ccccc1 was tested on Acetylcholinesterase (Mus musculus, UniProt P21836); the reported pIC50 is 6.47

Form field pIC50 for item O=C1c2ccccc2CN1CCC1CCN(Cc2ccccc2)CC1 on Acetylcholinesterase (Mus musculus, UniProt P21836): 7.01

Record O=C1c2ccc([N+](=O)[O-])cc2C(=O)N1CC1CCN(Cc2ccccc2)CC1 / Acetylcholinesterase (Mus musculus, UniProt P21836), pIC50 recorded as 5.52

With Acetylcholinesterase (Mus musculus, UniProt P21836) as the test system, O=C1c2ccccc2C(=O)N1CCC1CCN(Cc2ccccc2)CC1 showed pIC50 of 7.52

Log: Acetylcholinesterase (Mus musculus, UniProt P21836), compound COc1ccc(C(=O)N(CCC2CCN(Cc3ccccc3)CC2)c2ccccc2)cc1 , pIC50 = 6.23

Measured pIC50 (Acetylcholinesterase (Mus musculus, UniProt P21836)), entry O=C(c1ccc([N+](=O)[O-])cc1)N(CCC1CCN(Cc2ccccc2)CC1)c1ccccc1 : 8.27

// compound CNC(=O)Oc1ccc2c(c1)[C@]1(C)CCN(C)[C@@H]1N2C , assay Acetylcholinesterase (Mus musculus, UniProt P21836), pIC50 value: 9.16

# pIC50 measured on Acetylcholinesterase (Mus musculus, UniProt P21836) for item COc1cccc(N(CCC2CCN(Cc3ccccc3)CC2)C(C)=O)c1 = 7.34

Item O=C(Nc1ccc2c(c1)C(=O)N(CCC1CCN(Cc3ccccc3)CC1)C2=O)c1ccccc1 was tested on Acetylcholinesterase (Mus musculus, UniProt P21836); the reported pIC50 is 8.92

Entry O=C(C1CCCCC1)N(CCC1CCN(Cc2ccccc2)CC1)c1ccccc1 : pIC50 on Acetylcholinesterase (Mus musculus, UniProt P21836) = 5.03

Entry O=C1c2ccc([N+](=O)[O-])cc2C(=O)N1CCC1CCN(Cc2ccc(Cl)cc2)CC1 , tested on Acetylcholinesterase (Mus musculus, UniProt P21836), has a reported pIC50 of 6.62

# O=C1CCCCN1CCC1CCN(Cc2ccccc2)CC1 with Acetylcholinesterase (Mus musculus, UniProt P21836): pIC50 is 6.57

The recorded pIC50 with Acetylcholinesterase (Mus musculus, UniProt P21836) for CN(CCC1CCN(Cc2ccccc2)CC1)C(=O)c1ccc(S(=O)(=O)Cc2ccccc2)cc1 was 9.25

Tested on Acetylcholinesterase (Mus musculus, UniProt P21836), the item CC(=O)N(CCC1CCN(Cc2ccccc2)CC1)c1ccc(F)cc1 showed pIC50 equal to 6.69

The measured pIC50 that COc1ccc(CN2CCC(CCN3C(=O)c4ccc([N+](=O)[O-])cc4C3=O)CC2)cc1 showed for Acetylcholinesterase (Mus musculus, UniProt P21836) is 6.36

Readout pIC50 for O=C1c2ccc([N+](=O)[O-])cc2C(=O)N1C1CCN(Cc2ccccc2)CC1 , test system Acetylcholinesterase (Mus musculus, UniProt P21836), was 4.57

Entry O=C1c2ccc([N+](=O)[O-])cc2C(=O)N1CCC1CCN(Cc2ccccc2)CC1 : pIC50 on Acetylcholinesterase (Mus musculus, UniProt P21836) = 7.90

Test item O=c1c2ccccc2ccn1CCC1CCN(Cc2ccccc2)CC1 ; Acetylcholinesterase (Mus musculus, UniProt P21836); reported pIC50 was 5.96

Readout pIC50 for O=c1c2ccccc2ncn1CCC1CCN(Cc2ccccc2)CC1 , test system Acetylcholinesterase (Mus musculus, UniProt P21836), was 5.92
